Origin of the recorded values: paper PMC11677527

Test Summary: Verification pharmacokinetic experiment in rats, SPC 60 g crude drug/kg by gavage, UFLC-MS/MS, DAS 2.0
Type: in vivo, rat
Condition: rat, plasma, po, 0.22 mg/kg, statistical moment parameters, DAS 2.0; rats p.o. SPC 60 g crude drug/kg; Mean, 5 rats; read-out: Tmax
Property: Tmax
Value and unit, in that order.

Form: compound = COc1ccc(-c2coc3c(OC)c(O)ccc3c2=O)cc1 ; Tmax = 15 min

###

Here, each record is paired with measured AUC(0-t) data.
Test Summary: Verification pharmacokinetic experiment in rats, SPC 60 g crude drug/kg by gavage, UFLC-MS/MS, DAS 2.0
Type: in vivo, rat
Condition: rat, plasma, po, 2.62 mg/kg, rats, p.o. SPC 60 g crude drug/kg; doses of 1-4: 0.124, 0.22, 1.42, 2.62 mg/kg; n = 5; read-out: AUC0→t Val.
Dear colleague, please send the value followed by its unit.

| Compound | Test Value |
| --- | --- |
| COc1ccc(-c2coc3c(OC)c(O)ccc3c2=O)cc1 [Constituent 2, 8-O-methylretusin] | 15.3 ng·h/mL |

// COc1cc([C@H]2c3cc(O)c(OC)cc3C[C@@H](CO)[C@@H]2CO)ccc1O [Constituent 4, isolariciresinol] : AUC(0-t) value = 55.7 ng·h/mL

Given item O=c1c(-c2ccc(O)cc2)coc2cc(O[C@@H]3O[C@H](CO)[C@@H](O)[C@H](O)[C@H]3O)ccc12 [Constituent 3, daidzin] , the value recorded as its AUC(0-t) is 35.5 ng·h/mL

Memo: COc1cc(-c2coc3cc(O)ccc3c2=O)ccc1O [Constituent 1, 3′-methoxydadizein] , reported AUC(0-t): 19.1 ng·h/mL

###

Test Summary: Verification pharmacokinetic experiment in rats, SPC 60 g crude drug/kg by gavage, UFLC-MS/MS, DAS 2.0
Format: in vivo, rat
Condition: rat, plasma, po, 0.124 mg/kg, statistical moment parameters, DAS 2.0; rats p.o. SPC 60 g crude drug/kg; Mean, 5 rats; read-out: Tmax
Property: Tmax
Write the numeric value and follow it with the unit.

// recorded Tmax for COc1cc(-c2coc3cc(O)ccc3c2=O)ccc1O : 33 min

###

Test Summary: Verification pharmacokinetic experiment in rats, SPC 60 g crude drug/kg by gavage, UFLC-MS/MS, DAS 2.0
Type: in vivo, rat
Condition: rat, plasma, po, 0.22 mg/kg, statistical moment parameters, DAS 2.0; rats p.o. SPC 60 g crude drug/kg; Mean, 5 rats; read-out: Cmax
Property: Cmax (µg/mL)
Answer with a number only, understood to be in µg/mL.

Input COc1ccc(-c2coc3c(OC)c(O)ccc3c2=O)cc1 . Output Cmax: 0.0253

###

Test Summary: Verification pharmacokinetic experiment in rats, SPC 60 g crude drug/kg by gavage, UFLC-MS/MS, DAS 2.0
Format: in vivo, rat
Condition: rat, plasma, po, 2.62 mg/kg, statistical moment parameters, DAS 2.0; rats p.o. SPC 60 g crude drug/kg; Mean, 5 rats; read-out: Cmax
Property: Cmax (ng/mL)
Your answer is read as ng/mL, so omit the unit and give the number.

Entry COc1cc([C@H]2c3cc(O)c(OC)cc3C[C@@H](CO)[C@@H]2CO)ccc1O , Cmax reported as 41.7

###

Test Summary: Verification pharmacokinetic experiment in rats, SPC 60 g crude drug/kg by gavage, UFLC-MS/MS, DAS 2.0
Format: in vivo, rat
Condition: rat, plasma, po, 0.22 mg/kg, statistical moment parameters, DAS 2.0; rats p.o. SPC 60 g crude drug/kg; Mean, 5 rats; read-out: MRT(0-t)
Procedure: To validate the accuracy of PBPK models in predicting the pharmacokinetics of SPC constituents at different oral doses, the pharmacokinetic behavior of these four constituents from SPC in rats were analyzed by UFLC-MS/MS. The parameters were calculated using Drug and Statistics Software version 2.0, and then these validated values (Val.) were used to check the accuracy of the Calc. values and evaluated by FE. […]
Property: MRT last (h)
Write down the numeric answer in h and omit the unit.

Item: COc1ccc(-c2coc3c(OC)c(O)ccc3c2=O)cc1 | MRT last: 1.01
